Attribution: PubChem BioAssay AID1159580

Some compounds, each annotated with its measured normalized growth.
Assay: chemical genetic growth profiling, strain panel (AID 1159580);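 further: tested at 20 µM; growth read once vehicle control cultures reached saturation at 30 °C; 1 = growth at the plate median or of vehicle wells; lower values mean less growth of the strain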
Conditions: S. cerevisiae deletion strains, growth OD, locus YGL248W, strain PDE1, active compounds read low
The whole screen tested about 5,500 compounds, of which about 2,000 (36%) were called active. Inconclusive results (about 18%) are left out. The list shows a part of the results.

Prompt line: Item CC[N+](C)(C)c1cccc(O)c1 has what recorded normalized growth?
Response line: 0.997 (inactive)

---
Prompt line: Item CCC(C)C(=O)OC1[C@@H]2CC3=C4CC(=O)O[C@@H](c5ccoc5)[C@]4(C)CCC3[C@@](C)(C2=O)[C@@H](CC(=O)OC)C1(C)C (stereo not given in full) has what recorded normalized growth?
Response line: 1.01 (inactive)

Prompt line: Item NS(=O)(=O)c1cc2c(cc1Cl)NC(CSCc1ccccc1)=NS2(=O)=O has what recorded normalized growth?
Response line: 0.98 (inactive)

Prompt line: Item CC1(C)CC2C1CC[C@]1(CBr)CCC3C(CC(=O)O)C(=O)O[C@@]32C1 (stereo not given in full) has what recorded normalized growth?
Response line: 1.03 (inactive)

Prompt line: Item Oc1cccc(O)c1 has what recorded normalized growth?
Response line: 1.01 (inactive)

###

Some compounds, each annotated with its measured normalized growth.
Experiment: chemical genetic growth profiling, strain panel (AID 1159580);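 further: tested at 20 µM; growth read once vehicle control cultures reached saturation at 30 °C; 1 = growth at the plate median or of vehicle wells; lower values mean less growth of the strain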
Conditions: S. cerevisiae deletion strains, growth OD, locus YGL253W, strain hxk2, active compounds read low
The campaign covered roughly 5,500 compounds. About 2,000 (36%) were called active. Roughly 18% stayed inconclusive and do not appear here. Some of the results follow.
# respond with the number and nothing more

The following compounds have reported results that may help.
Prompt line: Item O=C1NC(O)=NC1(c1ccccc1)c1ccccc1 has what recorded normalized growth?
Response line: 1.01

Prompt line: Item COC(=O)/C(=C1\OC(=O)C(c2ccccc2)=C1O)c1ccccc1 has what recorded normalized growth?
Response line: 0.968

Prompt line: Item CCC(C)C(=O)OC1[C@@H]2CC3=C4CC(=O)O[C@@H](c5ccoc5)[C@]4(C)CCC3[C@@](C)(C2=O)[C@@H](CC(=O)OC)C1(C)C (stereo partly drawn) has what recorded normalized growth?
Response line: 1.03

---
Prompt line: Item CC(C)=CC1C(C(=O)O)C1(C)C (stereo not drawn) has what recorded normalized growth?
Response line: 0.993

Prompt line: Item CN(C)CCCN1c2ccccc2Sc2ccc(Cl)cc21 has what recorded normalized growth?
Response line: 0.0994

Prompt line: Item CC(=O)c1ccc(O)c(CC=C(C)C)c1 has what recorded normalized growth?
Response line: 0.884

Prompt line: Item COc1ccc(C2Sc3ccccc3N(CCN(C)C)C(=O)C2OC(C)=O)cc1 (stereo not drawn) has what recorded normalized growth?
Response line: 0.959

Prompt line: Item C[n+]1ccccc1/C=N/O has what recorded normalized growth?
Response line: 1.02

Prompt line: Item O=C(O)c1cccnc1 has what recorded normalized growth?
Response line: 0.987

Prompt line: Item OC[C@H]1O[C@@H](O[C@@H]2[C@@H](CO)O[C@](O)(CO)[C@H]2O)[C@H](O)[C@@H](O)[C@H]1O has what recorded normalized growth?
Response line: 0.99

Prompt line: Item NS(=O)(=O)c1cc2c(cc1Cl)NC(CSCc1ccccc1)=NS2(=O)=O has what recorded normalized growth?
Response line: 1.01

Prompt line: Item COc1cc(C(C)=O)cc(OC)c1O has what recorded normalized growth?
Response line: 1.02
